Can you tell me pIC50 for the items I'm about to list?
Test system: A549
protocol-notes: Cytotoxicity against human A549 cells assessed as reduction in cell viability after 48 hrs by MTS assay
Format: functional, cell-based
run-conditions: A549, 48 h
pIC50: −log10 of the molar value.

// worked examples, pIC50 included
Challenge: Could you share which pIC50 value was measured for "CC(C)[C@@H]1[C@@H]([C@@H]2CC[C@@H]3CN(C)C(=O)[C@@]32C)C(=O)O[C@H]1O" ?
Response given: < 4.40

Challenge: Param item = "CC(C)C1=C(O)C(=O)[C@@]2(C)[C@@H]3CC[C@H]2[C@H]1C(=O)N(C)C3" ; retrieve measured pIC50.
Response given: < 4.40

Challenge: Field request: pIC50 | item: "CC(C)C1=C(O)C(=O)[C@@]2(C)[C@@H]3CC[C@H]2[C@H]1C(=O)NC3"
Response given: < 4.40

Challenge: May I ask what pIC50 has been recorded for "CC(C)[C@@H]1[C@H]2OC(=O)[C@@H]1[C@@H]1CC[C@@H]3CN(C)[C@H]2[C@@]31C" ?
Response given: < 4.40

Give one value of pIC50 per listed compound.
1. CC(=O)O[C@H]1C(=O)[C@@]2(C)[C@H]([C@H](OC(=O)c3ccccc3)[C@]3(O)C[C@H](OC(=O)[C@H](O)[C@@H](NC(=O)c4ccccc4)c4ccccc4)C(C)=C1C3(C)C)[C@]1(OC(C)=O)CO[C@@H]1C[C@@H]2O [PACLITAXEL]
2. CC(C)[C@H]1[C@@H]2C(=O)O[C@H]1[C@@]1(O)N(C)C[C@H]3CC[C@@H]2[C@]31C
3. COC(=O)/C(=C(/C(=O)O)C(C)C)[C@@H]1CC[C@@H]2CN(C)C(=O)[C@@]21C
4. COc1ccc(CCc2cc(OC)c3c(c2)O[C@@H](c2ccc(O)c(OC)c2)[C@H](CO)O3)cc1

Response given:
["> 8.10", "< 4.40", "< 4.40", "< 4.40"]

====

protocol-notes: Antioxidant activity assessed as DPPH radical scavenging activity at 50 uM after 1 hr
Type: functional
endpoint-label: Activity (%)
Answers are plain numbers, in %.

Record excerpt, results attached:
Challenge: Which Activity value belongs to "COc1ccc(CCc2cc(OC)c3c(c2)O[C@@H](c2ccc(O)c(OC)c2)[C@H](CO)O3)cc1" ?
Response given: 9.56

Challenge: If you can, please state the reported Activity value of "COc1ccc(CCc2cc(O)c(-c3c(OC)cc([C@@H]4OO[C@H]4CO)cc3OC)c(OC)c2)cc1" .
Response given: 18.1

Challenge: I have this compound here, "COc1cc(CCc2ccc(O)cc2)cc(O)c1-c1c(OC)cc([C@@H]2OO[C@H]2CO)cc1OC" , and I need its recorded Activity.
Response given: 37.6

Query compound follows.
Challenge: Which Activity is listed for "COc1ccc(CCc2cc(OC)c(O[C@H](CO)[C@@H](O)c3ccc(O)c(OC)c3)c(OC)c2)cc1" ?
Response given: 27.6

====

Test system: A549
protocol-notes: Cytotoxicity against human A549 cells assessed as reduction in cell viability after 48 hrs by MTS assay
Type: functional, cell-based
run-conditions: A549, 48 h
endpoint-label: IC50 (µM)
Give bare numbers, in µM.

Challenge: # lookup: IC50 of "COc1ccc(CCc2cc(O)c(-c3c(OC)cc([C@@H]4OO[C@H]4CO)cc3OC)c(OC)c2)cc1"
Response given: 4.4

# next molecule below
Challenge: Give its IC50 value. Item: "COc1cc(CCc2ccc(O)cc2)cc(O)c1-c1c(OC)cc([C@@H]2OO[C@H]2CO)cc1OC"
Response given: 20.8
